Test: in vitro
Conditions: African green monkey
EXPERIMENTAL_READOUT: CC50

>  <MOLECULE>
C/C=C/C[C@@H](C)[C@@H](O)[C@H]1C(=O)N[C@@H](CC)C(=O)N(C)[C@H](C)C(=O)N(CC)[C@@H](C(C)C)C(=O)N[C@@H](C(C)C)C(=O)N(C)[C@@H](CC(C)C)C(=O)N[C@@H](C)C(=O)N[C@H](C)C(=O)N(C)[C@@H](CC(C)C)C(=O)N(C)[C@@H](CC(C)C)C(=O)N(C)[C@@H](C(C)C)C(=O)N1C [alisporivir, [D-MeAla]3-[EtVal]4-CsA]

>  <RESULT>
> 20 µM

$$$$

----------
Assay: in vitro
Settings: African green monkey

>  <COMPOUND>
C/C=C/C[C@@H](C)[C@@H](O)[C@H]1C(=O)N[C@@H](CC)C(=O)N(C)[C@H](C)C(=O)N(CC)[C@@H](C(C)C)C(=O)N[C@@H](C(C)C)C(=O)N(C)[C@@H](CC(C)C)C(=O)N[C@@H](C)C(=O)N[C@H](C)C(=O)N(C)[C@@H](CC(C)C)C(=O)N(C)[C@@H](CC(C)C)C(=O)N(C)[C@@H](C(C)C)C(=O)N1C [alisporivir, [D-MeAla]3-[EtVal]4-CsA]

>  <selectivity ratio>
> 37

$$$$
